Test system: NCI-H23
Test method notes: NCI tumour cell line growth inhibition, 48 h
Activity calls are given as the source filed them. Rule as the data show it: active = GI50 up to about 1.1 µM and inactive = higher.
Parameter GI50: see the listing below.

// solved cases for GI50 follow
>  <Compound>
CC(=O)O[C@H]1C=CC23OC(=O)[C@]1(C)[C@H]2[C@H](C(=O)O)C12CC(=O)[C@@](CO)(CC[C@H]13)C2

>  <GI50>
> 100 µM (inactive)

$$$$
>  <Compound>
O=[N+]([O-])c1ccc2c(c1)/C(=N/N=C1c3ccccc3Cc3ccccc31)c1cc([N+](=O)[O-])cc([N+](=O)[O-])c1-2

>  <GI50>
1.96 µM (inactive)

$$$$
>  <Compound>
NC(=O)c1ncn(Cc2ccccc2)c1CNC(N)=S

>  <GI50>
> 100 µM (inactive)

$$$$
>  <Compound>
COc1cc(/C=C2/C[C@H]3[C@@H]4CCC5=CC(=O)CC[C@]5(C)[C@H]4CC[C@]3(C)NC2=O)cc(OC)c1OC

>  <GI50>
21.3 µM (inactive)

$$$$
>  <Compound>
NC1=NC(c2ccccc2)CC(c2cc(Cl)cc(Br)c2O)=N1 (centres undefined)

>  <GI50>
10.8 µM (inactive)

$$$$
>  <Compound>
N=C(N)N/N=C/c1c(-c2ccc(Cl)cc2)nc2n1CCS2

>  <GI50>
> 10 µM (inactive)

$$$$

// sample `O=C(/C=C(\Nc1ccccc1O)c1ccc(Br)cc1)C(Cl)(Cl)Cl` , its GI50 was 12.6 µM (inactive)

Lab note: `CN(C)c1ccc(C(=C(c2ccc(N(C)C)cc2)c2ccc(N(C)C)cc2)c2ccc(N(C)C)cc2)cc1` gave GI50 of 17 µM (inactive)

GI50 reported for this compound `CNc1ccc([N+](=O)[O-])cc1C(=O)N1CCC[C@H]1CO` : > 100 µM (inactive)

---

Test system: SNB-78
Test method notes: NCI tumour cell line growth inhibition, 48 h
Calls of active or inactive are those of the source. Rule as the data show it: active = GI50 up to about 1.1 µM and inactive = higher.
Listing: GI50 of selected compounds

Recorded GI50, per entry:
>  <Compound>
Cc1ccc(/C=C/C(=O)c2sc(C(N)=S)nc2C)cc1

>  <GI50>
> 100 µM (inactive)

$$$$
>  <Compound>
COC(=O)C(=O)C(C(=O)C(=O)Nc1ccc([N+](=O)[O-])cc1[N+](=O)[O-])c1nc2ccc([N+](=O)[O-])cc2nc1O (stereo not given)

>  <GI50>
> 100 µM (inactive)

$$$$

In plain terms, C=C1C(=O)OC2CC3(C)C=CC(=O)C(=C)C3CC12 (stereo not given) has a documented GI50 of 2.43 µM (inactive)

GI50 in this record for `Cn1c2ccccc2c2cc(-c3ccccc3)c3c(c21)C(=O)c1ccccc1C3=O` : 15.1 µM (inactive)

Record summary for CC1=CC(=O)N(c2c(C)cccc2Cl)C(C)N1 (stereo not given) : reported GI50 = > 100 µM (inactive)

---

System: MOLT-4
Test method notes: NCI tumour cell line growth inhibition, 48 h
Activity calls are given as the source filed them. No stated cut-off is given here; in the data, active = GI50 up to about 1.1 µM and inactive = higher.
Return exactly one item of active, inactive

>  <Compound>
CCN(CC(O)COc1ccc2c(c1)[n+]([O-])nc(N)[n+]2[O-])C(C)=O (stereo not drawn)

>  <Class name>
inactive

$$$$
>  <Compound>
CCc1nnc(CC)n1N1C(=O)CCC1=O

>  <Class name>
inactive

$$$$
>  <Compound>
Cn1c(=O)oc2cc(C(=S)N3CCCCC3)ccc21

>  <Class name>
inactive

$$$$
>  <Compound>
FC1=C2C3CCC(C3)C2C1(F)F (stereo not drawn)

>  <Class name>
inactive

$$$$
>  <Compound>
NC(CCCNc1ccc(O)cc1)C(=O)O (stereo not drawn)

>  <Class name>
inactive

$$$$
>  <Compound>
O=C(O)C1SCCS1

>  <Class name>
inactive

$$$$
>  <Compound>
Cc1ccnc2nc(-c3ccc(F)cc3)cc(O)c12

>  <Class name>
inactive

$$$$
>  <Compound>
COc1ccc2c(c1)/C(=C\c1c(Cl)nc3n1CCS3)C(=O)N2

>  <Class name>
inactive

$$$$

Alright, here's another compound for you.
Called result for CCOP(=O)(OCC)C(C(=O)OC)C(=O)C(=O)Nc1cccc([N+](=O)[O-])c1 (stereo not drawn) inactive

---

System: MDA-MB-231
Test method notes: NCI tumour cell line growth inhibition, 48 h
The source made the active and inactive calls. No stated cut-off is given here; in the data, active = GI50 up to about 1.1 µM and inactive = higher.
Value kind: GI50

Some entries whose results are on file:
>  <Molecule>
c1ccc2c(c1)N[C@@H]1c3[nH]c4ccccc4c3CC[C@H]21

>  <Target system>
MDA-MB-231

>  <Value>
15.5 µM (inactive)

$$$$
>  <Molecule>
C[Si](C)(C)C1=C2C(=O)c3ccccc3C(=O)C2=C([Si](C)(C)C)[C@@H]2CCCC[C@H]12

>  <Target system>
MDA-MB-231

>  <Value>
> 100 µM (inactive)

$$$$
>  <Molecule>
C[C@@H](c1ccccc1)n1c(N)c(-c2ccccn2)c2ccc([N+](=O)[O-])cc2c1=O

>  <Target system>
MDA-MB-231

>  <Value>
86.3 µM (inactive)

$$$$

Lookup result for `SC1=NNC2(C(Cl)=N1)c1ccccc1-c1ccccc12` ; measured GI50: > 10 µM (inactive)

molecule `Clc1c2ncccc2cc2nn[nH]c12` , GI50 observed: > 100 µM (inactive)

---

System: CAKI-1
Test method notes: NCI tumour cell line growth inhibition, 48 h
Calls of active or inactive are those of the source. Cut-off read from the data, not from the text of the source: active = GI50 up to about 1.1 µM and inactive = higher.
Reply using exactly one outcome from true for active, false for inactive

>  <Molecule>
NCCCNCCCCN1CCOC1=O

>  <Target system>
CAKI-1

>  <Class name>
false

$$$$

Now for another entry.
Kindly provide the recorded test outcome for the following molecule: Cc1cn(C2CC(n3cc(Cn4cc(I)c(=O)[nH]c4=O)nn3)C(CO)O2)c(=O)[nH]c1=O (stereo unspecified) false

---

Tested on: SF-268
Test method notes: NCI tumour cell line growth inhibition, 48 h
Calls of active or inactive are those of the source. Rule as the data show it: active = GI50 up to about 1.1 µM and inactive = higher.
Pick from active, inactive when you respond.

>  <Molecule>
C/C(Cc1ccc2c(c1)OCO2)=N\N=c1\sc2ccccc2n1C

>  <Class name>
inactive

$$$$
>  <Molecule>
COc1ccc(C2SCC(=O)N2c2ccc(-n3c(-c4ccccc4)nc4ccccc4c3=O)cc2)cc1OC (configuration not stated)

>  <Class name>
inactive

$$$$
>  <Molecule>
Cc1ccc(C)c(NC(=O)/C(=N\NC(N)=S)C(C#N)c2ccccc2)c1 (configuration not stated)

>  <Class name>
inactive

$$$$
>  <Molecule>
COc1cc(/C=C2/C[C@H]3[C@@H]4CCC5=CC(=O)CC[C@]5(C)[C@H]4CC[C@]3(C)NC2=O)cc(OC)c1OC

>  <Class name>
inactive

$$$$
>  <Molecule>
COc1ccc(C2(C3c4cc(OC)c(OC)cc4CCN3C)SCCCS2)cc1O (configuration not stated)

>  <Class name>
inactive

$$$$
>  <Molecule>
CN(C)c1ccc(C(=C2C=CC(=[N+](C)C)C=C2)c2ccc(N(C)C)cc2)cc1

>  <Class name>
active

$$$$
>  <Molecule>
COc1cc2cnc(-c3ccccc3)cc2cc1OC

>  <Class name>
inactive

$$$$
>  <Molecule>
Cc1cn(C2CC(n3cc(Cn4cc(I)c(=O)[nH]c4=O)nn3)C(CO)O2)c(=O)[nH]c1=O (configuration not stated)

>  <Class name>
inactive

$$$$
>  <Molecule>
O=C1c2ccccc2-c2nnc3c(c21)Cc1ccccc1C3

>  <Class name>
inactive

$$$$
>  <Molecule>
c1ccc(-c2cc(-c3cc(-c4ccccn4)[nH]n3)n[nH]2)nc1

>  <Class name>
inactive

$$$$

Recorded call for `COc1ccc2c(c1)CCCN2S(=O)(=O)c1ccccc1[N+](=O)[O-]` ? inactive

Query: recorded result category for COc1ccc(N2C(=O)C3c4[nH]c5ccccc5c4C4CCCCCCCC4C3C2=O)cc1 (configuration not stated) in this test inactive

Please let me know the test result on file for Cc1cccc(C(C)(C)C)c1NC(=O)C(C#N)C1=C(Cl)C(=O)c2ccccc2C1=O (configuration not stated) . inactive

What is the recorded call for this molecule in the test? `C/C(=C\c1ccccn1)c1ccccn1` inactive

What call does the record list for `Cc1cc(SCC(=O)c2ccccc2)nc2ccccc12` ? inactive

---

# GI50 per entry
System: SF-268
Test method notes: NCI tumour cell line growth inhibition, 48 h
Active and inactive are the calls of the source. Rule as the data show it: active = GI50 up to about 1.1 µM and inactive = higher.

Sample records with GI50:
>  <Molecule>
CSC(=S)NNC(=O)c1ccncc1

>  <GI50>
21.6 µM (inactive)

$$$$
>  <Molecule>
O=[N+]([O-])c1ccc2c(c1)/C(=N/N=C1c3ccccc3Cc3ccccc31)c1cc([N+](=O)[O-])cc([N+](=O)[O-])c1-2

>  <GI50>
2.51 µM (inactive)

$$$$
>  <Molecule>
CN1CCCS/C1=C1/SC(=S)N(c2ccccc2)C1=O

>  <GI50>
> 100 µM (inactive)

$$$$
>  <Molecule>
CCOC1c2cc(OC)c(OC)cc2-c2ccc3ccccc3c2N1C (centres undefined)

>  <GI50>
2.05 µM (inactive)

$$$$
>  <Molecule>
O=C1c2c(Br)sc(Br)c2[C@H]2NC(=S)O[C@@H]12

>  <GI50>
15 µM (inactive)

$$$$

Reported GI50 (SF-268) for entry O=C(c1ccccc1)c1c(CC(O)c2ccncc2)n(C(=O)c2ccccc2)c2ccccc12 (centres undefined) is 20.7 µM (inactive)

Form: item COC1OC(CO)C(O)C(OC(=O)c2cc(O)c(O)c(O)c2)C1OC(=O)c1cc(O)c(O)c(O)c1 (centres undefined) ; test system SF-268; GI50: 59.4 µM (inactive)
